# Tested on: Lepidium sativum
# assayDetails: In vitro root inhibition activity measured using seedlings of Lepidium sativum, and relative potency expressed with respect to streptonigrin.
# Format: functional
The threshold is 1. Values of Relative potency beneath it are tagged TRUE; values meeting or exceeding it are tagged FALSE.

1) COC1=C(N)C(=O)c2c(ccnc2-c2ccccc2N)C1=O ... TRUE
2) COC1=C(N)C(=O)c2c(ccnc2-c2ccc([N+](=O)[O-])cc2)C1=O ... FALSE
3) COC1=C(N)C(=O)c2c(ccnc2-c2cccc(N)c2)C1=O ... TRUE
4) COC1=C(N)C(=O)c2c(ccnc2-c2ccc(N)cc2)C1=O ... TRUE
5) COC1=C(N)C(=O)c2c(ccnc2-c2ccccc2[N+](=O)[O-])C1=O ... FALSE
6) C/N=C1\C(=O)c2ccnc(-c3ccccc3[N+](=O)[O-])c2C(O)=C1Br ... FALSE
7) C/N=C1\C(=O)c2ccnc(Cc3ccccc3)c2C(O)=C1Br ... TRUE
8) COC1=C(N)C(=O)c2c(ccnc2-c2cccc([N+](=O)[O-])c2)C1=O ... FALSE
9) COC1=C(N)C(=O)c2nc(-c3nc(C(=O)O)c(C)cc3N)ccc2C1=O ... FALSE
10) COC1=C(N)C(=O)c2nc(-c3ccccn3)ccc2C1=O ... FALSE
11) COC1=C(N)C(=O)c2c(ccnc2Cc2ccccc2)C1=O ... TRUE
12) COC1=C(N)C(=O)c2c(ccnc2-c2ccccc2)C1=O ... FALSE

====

# Test system: Bacillus subtilis
# assayDetails: In vitro antibacterial activity against Bacillus subtilis
# Assay type: functional
measuredProperty: log10 of MIC (log10 of the value in µM)

1) C/N=C1\C(=O)c2ccnc(-c3ccccc3[N+](=O)[O-])c2C(O)=C1Br ... 0.83
2) COC1=C(N)C(=O)c2c(ccnc2-c2ccccc2[N+](=O)[O-])C1=O ... 0.95
3) COC1=C(N)C(=O)c2c(ccnc2-c2ccccc2N)C1=O ... 1.24
4) COC1=C(N)C(=O)c2nc(-c3nc(C(=O)O)c(C)c(-c4ccc(OC)c(OC)c4O)c3N)ccc2C1=O [STREPTONIGRIN] ... 0.14
5) COC1=C(N)C(=O)c2c(ccnc2-c2ccccc2)C1=O ... 1.43
6) COC1=C(N)C(=O)c2c(ccnc2-c2cccc(N)c2)C1=O ... 1.52
7) COC1=C(N)C(=O)c2c(ccnc2Cc2ccccc2)C1=O ... 1.20
8) COC1=C(N)C(=O)c2c(ccnc2-c2cccc([N+](=O)[O-])c2)C1=O ... 0.72
9) C/N=C1\C(=O)c2ccnc(Cc3ccccc3)c2C(O)=C1Br ... 1.20
10) COC1=C(N)C(=O)c2c(ccnc2-c2ccc(N)cc2)C1=O ... 1.55
11) COC1=C(N)C(=O)c2nc(-c3ccccn3)ccc2C1=O ... 1.15
12) COC1=C(N)C(=O)c2nc(-c3nc(C(=O)O)c(C)cc3N)ccc2C1=O ... -0.60
13) COC1=C(N)C(=O)c2c(ccnc2-c2ccccn2)C1=O ... 1.59

====

# Tested on: Lepidium sativum
# assayDetails: In vitro root inhibition activity using seedlings of Lepidium sativum
# Assay type: functional, organism-based
// I50 lookup, one value per entry
measuredProperty: I50

1) COC1=C(N)C(=O)c2c(ccnc2-c2ccc([N+](=O)[O-])cc2)C1=O ... 9.41 nM ml-1
2) C/N=C1\C(=O)c2ccnc(-c3ccccc3[N+](=O)[O-])c2C(O)=C1Br ... 10 nM ml-1
3) COC1=C(N)C(=O)c2c(ccnc2-c2ccc(N)cc2)C1=O ... 15.49 nM ml-1
4) COC1=C(N)C(=O)c2c(ccnc2Cc2ccccc2)C1=O ... 13.7 nM ml-1
5) COC1=C(N)C(=O)c2c(ccnc2-c2ccccn2)C1=O ... 12.7 nM ml-1
6) C/N=C1\C(=O)c2ccnc(Cc3ccccc3)c2C(O)=C1Br ... 30.05 nM ml-1
7) COC1=C(N)C(=O)c2nc(-c3nc(C(=O)O)c(C)cc3N)ccc2C1=O ... 5.5 nM ml-1
8) COC1=C(N)C(=O)c2c(ccnc2-c2ccccc2N)C1=O ... 65 nM ml-1
9) COC1=C(N)C(=O)c2nc(-c3nc(C(=O)O)c(C)c(-c4ccc(OC)c(OC)c4O)c3N)ccc2C1=O ... 12.65 nM ml-1
10) COC1=C(N)C(=O)c2c(ccnc2-c2cccc(N)c2)C1=O ... 22.37 nM ml-1
11) COC1=C(N)C(=O)c2c(ccnc2-c2ccccc2)C1=O ... 11.25 nM ml-1
12) COC1=C(N)C(=O)c2c(ccnc2-c2cccc([N+](=O)[O-])c2)C1=O ... 6.43 nM ml-1
13) COC1=C(N)C(=O)c2nc(-c3ccccn3)ccc2C1=O ... 9.18 nM ml-1
14) COC1=C(N)C(=O)c2c(ccnc2-c2ccccc2[N+](=O)[O-])C1=O ... 6.03 nM ml-1

# credit: ChEMBL document CHEMBL1125263
